All figures here come from patent US20210246166A1.

- test-target: T1, recombinant rat MASP1 active protease (amino acids 302-704, C-terminal His Tag) (rat, UniProt Q8CHN8 302-704)
- T1 sequence: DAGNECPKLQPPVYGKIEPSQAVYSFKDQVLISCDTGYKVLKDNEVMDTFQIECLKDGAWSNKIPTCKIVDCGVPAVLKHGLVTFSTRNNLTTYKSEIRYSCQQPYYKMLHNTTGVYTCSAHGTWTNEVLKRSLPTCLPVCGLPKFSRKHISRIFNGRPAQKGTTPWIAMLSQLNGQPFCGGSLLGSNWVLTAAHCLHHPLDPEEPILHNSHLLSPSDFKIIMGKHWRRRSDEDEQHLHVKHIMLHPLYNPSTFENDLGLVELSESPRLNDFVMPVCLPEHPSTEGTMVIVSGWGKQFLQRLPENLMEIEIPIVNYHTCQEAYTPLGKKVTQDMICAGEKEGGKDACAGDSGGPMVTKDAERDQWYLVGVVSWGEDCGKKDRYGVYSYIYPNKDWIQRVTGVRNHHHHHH
- procedure-details: cell-based or functional assay
Bridge positions count the residues as written; N and C are the ends. Square brackets hold non-standard residues; d marks the D form. Ends that are not written are not given here. Oic = O=C(O)[C@@H]1C[C@@H]2CCCC[C@@H]2N1; tBuAla = CC(C)(C)C[C@H](N)C(=O)O; Chg = N[C@H](C(=O)O)C1CCCCC1; Pen = CC(C)(S)[C@H](N)C(=O)O; NMeC = CN[C@@H](CS)C(=O)O; Orn = NCCC[C@H](N)C(=O)O; dβPro = D-beta-Proline; Sar = CNCC(=O)O
Decide using rat MASP1 IC50 alone. Strictly below 80 nM: Condition met. Equal to or above 80 nM: Condition not met.

Input line: Given [Orn]ICSRS[tBuAla]PPI[NMeC]IPD-OH (disulfide 3-11; N-terminus assumed; SMILES CC[C@H](C)[C@H](NC(=O)[C@@H](N)CCCN)C(=O)N[C@H]1CSSC[C@@H](C(=O)N[C@H](C(=O)N2CCC[C@H]2C(=O)N[C@@H](CC(=O)O)C(=O)O)[C@@H](C)CC)N(C)C(=O)[C@H]([C@@H](C)CC)NC(=O)[C@@H]2CCCN2C(=O)[C@@H]2CCCN2C(=O)[C@H](CC(C)(C)C)NC(=O)[C@H](CO)NC(=O)[C@H](CCCNC(=N)N)NC(=O)[C@H](CO)NC1=O) [Example 479: (Orn)-IC+SRS-((tBu)A)-PPI-((N-Me)C)+IPD-OH] , is recorded rat MASP1 IC50 strictly lower than 80 nM?
Output line: Condition not met

Input line: // repeat for LICSRS[tBuAla]PPI[NMeC]I-NH2 (disulfide 3-11; N-terminus assumed; SMILES CC[C@H](C)[C@H](NC(=O)[C@@H]1CSSC[C@H](NC(=O)[C@@H](NC(=O)[C@@H](N)CC(C)C)[C@@H](C)CC)C(=O)N[C@@H](CO)C(=O)N[C@@H](CCCNC(=N)N)C(=O)N[C@@H](CO)C(=O)N[C@@H](CC(C)(C)C)C(=O)N2CCC[C@H]2C(=O)N2CCC[C@H]2C(=O)N[C@@H]([C@@H](C)CC)C(=O)N1C)C(N)=O) [Example 65: LIC+SRS-((tBu)A)-PPI-((N-Me)C)+I-NH2] and report
Output line: Condition met

Input line: Also [dβPro]ICSRS[tBuAla]PPI[Pen]IPD-OH (disulfide 3-11) [Example 481: (beta-p)-IC+SRS-((tBu)A)-PPI-(Pen)+IPD-OH] ?
Output line: Condition met

Input line: Queued: [Sar]ICSRSLP[Oic]I[Pen]IP-NH2 (disulfide 3-11; N-terminus assumed; SMILES CC[C@H](C)[C@H](NC(=O)CNC)C(=O)N[C@H]1CSSC(C)(C)[C@@H](C(=O)N[C@H](C(=O)N2CCC[C@H]2C(N)=O)[C@@H](C)CC)NC(=O)[C@H]([C@@H](C)CC)NC(=O)[C@@H]2C[C@@H]3CCCC[C@@H]3N2C(=O)[C@@H]2CCCN2C(=O)[C@H](CC(C)C)NC(=O)[C@H](CO)NC(=O)[C@H](CCCNC(=N)N)NC(=O)[C@H](CO)NC1=O) [Example 109: ((N-Me)G)-IC+SRSLP-(Oic)-I-(Pen)+IP-NH2]
Output line: Condition met

Input line: Can you check AICSRSLPP[Chg]CIPD-NH2 (disulfide 3-11; N-terminus assumed; SMILES CC[C@H](C)[C@H](NC(=O)[C@H](C)N)C(=O)N[C@H]1CSSC[C@@H](C(=O)N[C@H](C(=O)N2CCC[C@H]2C(=O)N[C@@H](CC(=O)O)C(N)=O)[C@@H](C)CC)NC(=O)[C@H](C2CCCCC2)NC(=O)[C@@H]2CCCN2C(=O)[C@@H]2CCCN2C(=O)[C@H](CC(C)C)NC(=O)[C@H](CO)NC(=O)[C@H](CCCNC(=N)N)NC(=O)[C@H](CO)NC1=O) [Example 254: AIC+SRSLPP-(Chg)-C+IPD-NH2] next?
Output line: Condition not met
